Known amyloid nucleation score of a selection of substances
Experiment: amyloid nucleation score (Sup35N fusion, yeast selection) (log enrichment); library NNK2; higher = more nucleation; inactive = no reads after selection;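 note: zero at mode of non-aggregating sequences after 7 days selection at 30°C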
Give your answer as a number; write no unit.

Below, each entry is followed by its recorded amyloid nucleation score result.
Input: # return recorded amyloid nucleation score for entry RVHRLQTEEVMYSSGSK
Output: 4.96

Input: Return amyloid nucleation score for the following substance: YFSSTYLRQGIFWCFRMSRL
Output: -0.43

Input: State, in one line, measured amyloid nucleation score of SVCSKSGNFYGVVNMGL
Output: -0.161

Others:
Input: Give a short answer stating reported amyloid nucleation score for KDNSTPRIGASDEIDVVLAF .
Output: 0.078

Input: Report measured amyloid nucleation score; entry is DCLNRLY
Output: 0.138

Input: Tell me amyloid nucleation score reported for STTWNSLELTTDNAAGAAII
Output: 2.95

Input: Output measured amyloid nucleation score for this item: YHVVAWSWTRSYV
Output: 0.561

Input: Provide only the value of recorded amyloid nucleation score for IYLGVCYFSALGRDFMSKWW
Output: 1.77

Input: Give the measured amyloid nucleation score for YVQVFRSLDYNHHAKS
Output: -0.508

Input: Query amyloid nucleation score for NFFPCACNNGAPIKEDFTCR
Output: 2.84

Input: Give the measured amyloid nucleation score for STVTELLRYPAHNFGEVHIL
Output: 4.7

Input: Please look at this substance and report its amyloid nucleation score: RMIYGSRRFDVDIFYFGIRN
Output: 4.24

Input: Look up amyloid nucleation score of LSSIWVSSYHLSWLKSW and report it.
Output: -0.048

Input: Identify measured amyloid nucleation score associated with TSCFLLILCLQMKCTSFTSS
Output: 2.18

###

Test: amyloid nucleation score (Sup35N fusion, yeast selection) (log enrichment); library NNK3; higher = more nucleation; inactive = no reads after selection
Readout Name: amyloid nucleation score

Input: Dear colleague, please send me the reported amyloid nucleation score for PRFMKVRRWYSNLM when you can.
Output: inactive

Input: Note amyloid nucleation score for the substance shown: DRNCRLIHYFIQ
Output: inactive

Input: Quickly give me recorded amyloid nucleation score for VRGIAIACWSQFCNWRICCR
Output: -0.231

Input: Consider the substance YSSVILVY . State its measured amyloid nucleation score.
Output: 0.156

Input: Provide measured amyloid nucleation score value, entry: SLNMLDFFYSLFGVCNKTVL
Output: inactive

Others:
Input: Indicate the recorded amyloid nucleation score value for this substance: MVTRMCYIACLVFRVWAMCR
Output: inactive

Input: Give reported amyloid nucleation score value for IYVDVNSDP
Output: inactive

Input: Please look at this substance and report its amyloid nucleation score: MVHAVPHMVDGGS
Output: inactive

Input: // fetch amyloid nucleation score given entry FCAINP
Output: inactive

Input: Note amyloid nucleation score for the substance shown: YQSTVFGCYTYSRLKCLRSA
Output: inactive

Input: Answer with the recorded amyloid nucleation score of YGLSGDKFRWM only.
Output: inactive

###

Assay: amyloid nucleation score (Sup35N fusion, yeast selection) (log enrichment); library NNK1; higher = more nucleation; inactive = no reads after selection
Readout Name: amyloid nucleation score
Just the number, please, no unit after it.

Input: Hello, please tell me recorded amyloid nucleation score for this one: EVIAGCGLRCRSSNHIVREM
Output: 0.104

Input: In one line, give reported amyloid nucleation score of the entry VAVRTPMSVCSVLLGSGSGL .
Output: -0.162

Input: Consider the substance HYGVDEAFGRWDGVLMCQKV and give its recorded amyloid nucleation score.
Output: -0.134

Input: Fill in amyloid nucleation score for record WYPAANLRLVALIKGVSAVT
Output: -2.23

Input: Give recorded amyloid nucleation score. IVFRLS
Output: 0.185

Input: State its amyloid nucleation score for this substance: NNYVYLSLSFPVGTVC
Output: -0.377

Input: Answer with the recorded amyloid nucleation score for the substance listed here: SLKMMIFQRGFYTSIG
Output: 1.75

Input: Please report the measured amyloid nucleation score for GFNMLC
Output: 0.224

Input: Provide only the value of recorded amyloid nucleation score for KQTLLYHSSGSCCWELVSWW
Output: 4.39

Input: Quickly give me recorded amyloid nucleation score for KNVMVFVQDWIVVSCMRVEK
Output: 2.39

Now look at this entry.
Input: Using known records, supply amyloid nucleation score for NWVLHIRDCRAKALPLITDW
Output: -0.034
